Molecular target: T1, Human receptor grade IGFBP-5 (insulin-like growth factor binding protein 5) (human, UniProt P24593 21-272)
T1 construct: Bought recombinant protein, overlaid in solution on the VN-peptide array
T1 sequence (P24593 21-272 limits assumed): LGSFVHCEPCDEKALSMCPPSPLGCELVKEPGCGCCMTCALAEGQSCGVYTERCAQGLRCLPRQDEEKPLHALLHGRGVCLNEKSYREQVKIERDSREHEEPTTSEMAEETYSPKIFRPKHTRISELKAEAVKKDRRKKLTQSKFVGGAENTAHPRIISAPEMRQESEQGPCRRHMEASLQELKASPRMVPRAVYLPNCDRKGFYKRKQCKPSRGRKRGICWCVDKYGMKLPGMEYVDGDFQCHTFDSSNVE
Test: VN-peptide array, ligand overlay, immunoblot/ECL, TotalLab spot intensity
Where no end group is shown, it is not given here.
Readout: Intensity (against -ve control)

// known answers, use as guide
Binder	Value measured
GRTSAGTRQPQFISRD (not fully specified (N-terminus); also: free end capped by acetylation, immobilised on cellulose membrane (SPOT synthesis)) [VN-peptide 6A (array grid G12)]	7 fold over negative controls
KYYRVNLRTRRVDTVD (not fully specified (N-terminus); also: free end capped by acetylation, immobilised on cellulose membrane (SPOT synthesis)) [VN-peptide 8A (array grid J4)]	3 fold over negative controls
Ac-RRVDTVDPPYPRSIAQ (also: immobilised on cellulose membrane) [VN-peptide 8D (array grid J7)]	8 fold over negative controls

# lookup: Intensity (against -ve control) of SAGTRQPQFISRDWHG (not fully specified (N-terminus); also: free end capped by acetylation, immobilised on cellulose membrane (SPOT synthesis)) [VN-peptide 6B (array grid G13)] 1.5 fold over negative controls

# lookup: Intensity (against -ve control) of ALALPAHSYSGRERVY (not fully specified (N-terminus); also: free end capped by acetylation, immobilised on cellulose membrane (SPOT synthesis)) [VN-peptide 3B (array grid F6)] 3 fold over negative controls

# lookup: Intensity (against -ve control) of CQCDELCSYYQSCCTD (not fully specified (N-terminus); cysteine pairing not given here; also: free end capped by acetylation, immobilised on cellulose membrane (SPOT synthesis)) [VN-peptide 1A (array grid A13)] 11 fold over negative controls

# lookup: Intensity (against -ve control) of Ac-LRTRRVDTVDPPYPRS (also: immobilised on cellulose membrane) [VN-peptide 8C (array grid J6)] 9 fold over negative controls

# lookup: Intensity (against -ve control) of VDAALALPAHSYSGRE (not fully specified (N-terminus); also: free end capped by acetylation, immobilised on cellulose membrane (SPOT synthesis)) [VN-peptide 3A (array grid F5)] 3 fold over negative controls
